tested on: DENV-4 strain EDEN; assay: Tetravalent RT-qPCR assay Protocol A, serotype 4 EDEN; format: cell-based; conditions: Dengue virus, DENV4, 72 h, RT-qPCR serotype 4 EDEN, Vero cells, day 3
pEC50: −log10 of the molar value.

>  <compound>
COc1cc(NC(C(=O)c2c[nH]c3cc(OC)c(C)cc23)c2ccc(F)cc2OC)cc(OCCO)c1 (single isomer, unassigned)

>  <pEC50>
7.89

$$$$
>  <compound>
COc1cc(NC(C(=O)c2c[nH]c3c(C)cc(F)cc23)c2ccc(F)cc2OC)cc(OCCO)c1 (single isomer, unassigned)

>  <pEC50>
7.70

$$$$
>  <compound>
COc1cc(NC(C(=O)c2c[nH]c3c(F)cc(C)cc23)c2ccc(F)cc2OC)cc(OCCO)c1 (single isomer, unassigned) [Compound 12B]

>  <pEC50>
7.77

$$$$
>  <compound>
COc1cc(NC(C(=O)c2c[nH]c3c(Cl)c(OC)ccc23)c2ccc(F)cc2OC)cc(OCCO)c1 (single isomer, unassigned)

>  <pEC50>
7.68

$$$$
>  <compound>
COc1cc(NC(C(=O)c2c[nH]c3c(C)c(OC)ccc23)c2ccc(F)cc2OC)cc(OCCO)c1 (single isomer, unassigned) [Compound 11A]

>  <pEC50>
7.82

$$$$
